meta.source: ChEMBL document CHEMBL4130604

tested on: MDA-MB-231; test: Antiproliferative activity against human MDA-MB-231 cells after 48 hrs by MTT assay; assay type: functional, cell-based; conditions: MDA-MB-231, 48 h
Test readout: IC50

C=C1C(=O)O[C@@H]2/C=C(/C)[C@@H](OC(C)=O)[C@H](OC(C)=O)/C=C(\C)C[C@@H](OC(=O)/C(=C\C)CO)[C@@H]12 | > 10 µM
C=C1C(=O)O[C@@H]2/C=C(/CO)[C@@H](OC(C)=O)C/C=C(\C)C[C@@H](OC(=O)/C(=C\C)CO)[C@@H]12 | > 10 µM

Now turn to the next molecule.
The measured IC50 associated with "C=C1C(=O)O[C@@H]2/C=C(/CO)[C@@H](OC(C)=O)C[C@@H](O)C(=C)C[C@@H](OC(=O)/C(=C\C)CO)[C@@H]12" reads > 10 µM
